Biological target: Glucose transporter (Leishmania mexicana) (UniProt O61059)
Assay: ST_JUDE_LEISH: Cytotoxicity at 2uM final concentration against transgenic Leishmania Mexicana promastigotes LmGT2 that are glucose transport deficient and complemented with the L. Mexicana glucose transporter 2. Activity is measured by DNA content using SYBR green in vitro
Type: functional
property.measured: inhibition (%)
Numbers only, in %.

In the examples that follow, each entry is paired with its recorded inhibition.
Tell me its inhibition on Glucose transporter (Leishmania mexicana) (UniProt O61059): `Cc1cc(Cl)c(S(=O)(=O)N2CCc3ccccc32)cc1OCC(=O)NC1CCCCC1`
2.14

Quote inhibition with test system Glucose transporter (Leishmania mexicana) (UniProt O61059) for `COc1cc2nc(NCCc3ccccc3)nc(NCc3ccc(C#N)cc3)c2cc1OC`
2.83

Tell me inhibition of `CN(C)CCOc1ccc(-c2cc(-c3ccncc3)c(-c3ccc(Cl)c(O)c3)[nH]2)cc1` when tested on Glucose transporter (Leishmania mexicana) (UniProt O61059).
1.4

For every item in the list below, what is its measured inhibition?
1. O=C(Cc1ccc[n+]([O-])c1)Nc1ccc(-c2cccc(-c3nc4cc(C(F)(F)F)ccc4[nH]3)c2)cc1
2. CCOC(=O)NCCSC(C)(C)[C@H](NC(=O)[C@H](Cc1cc2ccccc2s1)[C@H](CC)N(O)C=O)C(=O)Nc1nccs1
3. CCOc1cc(C=Cc2nc(O)c3ccccc3n2)cc(Cl)c1O

-0.42
-0.04
2.7

====

Task for the reader: assign each of the following molecules its reported inhibition.
Target: Hexose transporter 1 (Plasmodium falciparum) (UniProt O97467)
Experiment: ST_JUDE_LEISH: Cytotoxicity at 2uM final concentration against transgenic Leishmania Mexicana promastigotes LmPfHT that are glucose transport deficient and complemented with the Plasmodium falciparum hexose transporter. Activity is measured by DNA content using SYBR green in vitro
Format: functional
Numbers only, in %.

Worked cases, answers included:
Tell me inhibition reported for `COc1ccc(Nc2ncc3c(-c4cccc(NC(=O)Cc5cccc(O)c5)c4)c[nH]c3n2)cc1OC`
1.51

Respond only with inhibition recorded for `O=C(Nc1cccc(CN2CCCN(Cc3cccc(O)c3)CC2)c1)c1cc2ccccc2s1`
-0.1

Note down inhibition recorded for `CCNC(=O)Nc1cccc(-c2cccc(-c3nc4cccc(C)c4[nH]3)c2)c1`
2.2

# return recorded inhibition for entry `Cc1ccc(CON2C(=N)N=C(N)NC2(C)C)cc1C`
3.55

Specify reported inhibition for the molecule shown: Cc1ccc(OC2CCN(CCCCC3(C)C(=O)Nc4ccccc43)CC2)cc1 (configuration not stated)
15.1

For each of the molecules below, state inhibition.
1. CN1CCC(C(=O)Nc2cccc(-c3ccc(-c4nc5cc(C(F)(F)F)ccc5[nH]4)cc3)c2)CC1
2. CC(Sc1nc2sccc2c(=O)n1C)C(=O)Nc1ccc2c(c1)OCO2 (configuration not stated)
3. COc1ccc(CNCc2ccc(F)cc2)cc1-c1cccc(S(=O)(=O)NCCN2CCCC2)c1
4. O=C(Nc1ccc(Cl)c(Cl)c1)N[C@H]1CCN(CCCCCNC(=O)C2CC2c2ccc(Cl)c(Cl)c2)C1 (some centres not stated)
5. CC1(C)N=C(N)N=C(N)N1OCc1ccc2ccccc2c1

2.75
5.47
0.14
8.71
7.22

====

Target: Glucose transporter (Leishmania mexicana)
Assay: ST_JUDE_LEISH: Cytotoxicity at 2uM final concentration against transgenic Leishmania Mexicana promastigotes LmGT2 that are glucose transport deficient and complemented with the L. Mexicana glucose transporter 2. Activity is measured by DNA content using SYBR green in vitro
Type: functional
What inhibition was measured for each of the following?
Numbers only, in %.

Worked set:
Item `c1ccc(Oc2cccc(Nc3ccnc4ccccc34)c2)cc1` : provide inhibition
3.97

For the molecule `O=C(Nc1ccc(C(=O)N(Cc2ccc3c(c2)OCO3)C2CCCC2)cc1)c1cccs1` , report inhibition.
-2.85

Write down inhibition measured for item `O=C(Nc1ccc(C(=O)N2CCN(CCN3CCN(c4cccc(C(F)(F)F)c4)CC3)CC2)cc1)c1ccc(C(F)(F)F)cc1`
1.69

For every item in the list below, what is its measured inhibition?
1. CC(C)[C@@H](C(=O)NCc1cccc(C(F)(F)F)c1)N1C(=O)CCC1C(=O)Nc1ccc([N+](=O)[O-])cc1 (stereo not given in full)
2. CC(C)(C)c1cc(C(=O)N2CCN(c3ncnc4ccsc34)CC2)n(Cc2ccccc2)n1

1: 2.73; 2: 2.2
